Each entry below carries its recorded pIC50.
# target_or_system: Protein deacetylase HDAC6 (Homo sapiens)
# Sequence (Q9UBN7 whole entry): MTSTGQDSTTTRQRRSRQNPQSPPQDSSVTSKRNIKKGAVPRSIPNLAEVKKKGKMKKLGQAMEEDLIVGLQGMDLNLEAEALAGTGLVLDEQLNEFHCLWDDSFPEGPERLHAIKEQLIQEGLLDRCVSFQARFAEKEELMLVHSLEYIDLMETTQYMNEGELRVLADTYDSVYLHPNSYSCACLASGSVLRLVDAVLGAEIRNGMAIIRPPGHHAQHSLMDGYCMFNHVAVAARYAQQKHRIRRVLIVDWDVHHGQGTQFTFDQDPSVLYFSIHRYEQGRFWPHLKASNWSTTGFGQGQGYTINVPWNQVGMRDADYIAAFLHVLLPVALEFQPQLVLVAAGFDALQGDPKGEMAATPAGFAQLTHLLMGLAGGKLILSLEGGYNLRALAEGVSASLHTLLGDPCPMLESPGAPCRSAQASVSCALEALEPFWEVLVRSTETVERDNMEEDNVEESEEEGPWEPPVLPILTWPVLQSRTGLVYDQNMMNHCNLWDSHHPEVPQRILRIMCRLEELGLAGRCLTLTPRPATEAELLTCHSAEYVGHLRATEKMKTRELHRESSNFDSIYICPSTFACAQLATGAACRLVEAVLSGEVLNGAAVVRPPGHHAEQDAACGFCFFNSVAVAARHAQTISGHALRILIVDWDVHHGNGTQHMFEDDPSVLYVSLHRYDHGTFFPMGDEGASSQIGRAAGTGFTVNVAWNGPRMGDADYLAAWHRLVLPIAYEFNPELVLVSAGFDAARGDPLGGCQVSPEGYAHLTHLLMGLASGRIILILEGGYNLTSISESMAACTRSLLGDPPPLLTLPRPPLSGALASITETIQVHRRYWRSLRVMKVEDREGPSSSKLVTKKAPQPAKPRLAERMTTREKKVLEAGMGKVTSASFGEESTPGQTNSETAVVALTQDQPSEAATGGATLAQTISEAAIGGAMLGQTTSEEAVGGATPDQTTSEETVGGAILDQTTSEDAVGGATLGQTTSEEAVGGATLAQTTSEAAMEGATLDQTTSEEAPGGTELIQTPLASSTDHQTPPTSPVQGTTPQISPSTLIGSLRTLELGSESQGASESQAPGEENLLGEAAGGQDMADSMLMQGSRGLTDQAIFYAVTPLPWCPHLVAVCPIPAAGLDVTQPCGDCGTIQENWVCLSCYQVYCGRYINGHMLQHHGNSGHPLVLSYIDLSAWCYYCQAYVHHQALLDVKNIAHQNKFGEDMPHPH
pIC50 field: float, defined as -log10 of concentration (mol/L).

chem_smiles: COc1ccc(N(C)c2cc(C#N)nc3ccccc23)cc1/C=C/C(=O)NO
pIC50: 6.00

Lab note: next compound to report on.
Entry COc1ccc(N(C)c2nc(C)nc3ccccc23)cc1/C=C/C(=O)NO , pIC50 reported as 5.70

###

# test: Metabolic stability in human liver microsomes assessed as intrinsic clearance per mg protein measured upto 6 hrs in presence of NADPH generating system by HPLC-MS/MS analysis
# Format: ADME, Microsome
# measurement_setup: read-out: CLH
measure: microsomal CLint (µL/min/mg)
Provide only the numeric value, understood in µL/min/mg.

Worked cases, microsomal CLint given:
chem_smiles: C=C(c1ccc(OC)c(/C=C/C(=O)NO)c1)c1cc(OC)c(OC)c(OC)c1
measure: microsomal CLint
reading: 0.83

chem_smiles: COc1ccc(N(C)c2nc(C)nc3ccccc23)cc1/C=C/C(=O)NO
measure: microsomal CLint
reading: 1.28

chem_smiles: COc1ccc(N(C)c2cc(C#N)nc3ccccc23)cc1/C=C/C(=O)NO
measure: microsomal CLint
reading: 0.36

Entry C=C(c1ccc(OC)c(O)c1)c1cc(OC)c(OC)c(OC)c1 , microsomal CLint reported as 0.96

###

# target_or_system: Histone deacetylase 11 (Homo sapiens, UniProt Q96DB2)
# Sequence (Q96DB2 whole entry): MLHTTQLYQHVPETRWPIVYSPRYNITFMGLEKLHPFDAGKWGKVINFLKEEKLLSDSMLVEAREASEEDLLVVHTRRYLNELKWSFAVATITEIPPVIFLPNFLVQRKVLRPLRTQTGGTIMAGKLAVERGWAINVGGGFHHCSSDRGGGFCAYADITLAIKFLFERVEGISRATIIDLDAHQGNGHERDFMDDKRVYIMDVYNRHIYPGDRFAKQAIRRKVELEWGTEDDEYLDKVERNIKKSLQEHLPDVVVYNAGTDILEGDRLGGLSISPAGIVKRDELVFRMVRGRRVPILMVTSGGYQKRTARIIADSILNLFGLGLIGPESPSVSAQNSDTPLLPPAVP
measure: IC50 (nM)
Provide only the numeric value, understood in nM.

Value (IC50, Histone deacetylase 11 (Homo sapiens, UniProt Q96DB2)) for record COc1ccc(N(C)c2cc(C#N)nc3ccccc23)cc1/C=C/C(=O)NO = 1900

###

# test: Metabolic stability in rat liver microsomes assessed as half-life measured upto 6 hrs in presence of NADPH generating system by HPLC-MS/MS analysis
# Assay type: ADME, Microsome
Each entry below carries its recorded half-life.
Provide only the numeric value, understood in h.

Worked cases, half-life given:
chem_smiles: C=C(c1ccc(OC)c(O)c1)c1cc(OC)c(OC)c(OC)c1
measure: half-life
reading: 4.24

chem_smiles: C=C(c1ccc(OC)c(/C=C/C(=O)NO)c1)c1cc(OC)c(OC)c(OC)c1
measure: half-life
reading: 4.42

chem_smiles: COc1ccc(N(C)c2nc(C)nc3ccccc23)cc1/C=C/C(=O)NO
measure: half-life
reading: 3.53

Lab note: next compound to report on.
Entry COc1ccc(N(C)c2cc(C#N)nc3ccccc23)cc1/C=C/C(=O)NO , half-life reported as 6.6

###

# Test system: A549
# test: Antiproliferative activity against human A549 cells after 72 hrs by CellTiter Glo assay
# Assay type: functional, cell-based
# measurement_setup: A549, 72 h
measure: IC50 (nM)
Provide only the numeric value, understood in nM.

Worked cases, IC50 given:
chem_smiles: COc1ccc(N(C)c2nc(C)nc3ccccc23)cc1/C=C/C(=O)NO
reading: 0.51

chem_smiles: C=C(c1ccc(OC)c(O)c1)c1cc(OC)c(OC)c(OC)c1
reading: 12

chem_smiles: COc1ccc(N(C)c2cc(C#N)nc3ccccc23)cc1/C=C/C(=O)NO
reading: 0.84

chem_smiles: CC(/C=C/C(=O)NO)=C\[C@@H](C)C(=O)c1ccc(N(C)C)cc1
reading: 80

chem_smiles: COc1ccc(Cn2ccc3ccc(C(=O)NO)cc32)cc1
reading: 2000

Lab note: next compound to report on.
Entry C=C(c1ccc(OC)c(/C=C/C(=O)NO)c1)c1cc(OC)c(OC)c(OC)c1 , IC50 reported as 2

###

# System: K562
# test: Antiproliferative activity against human K562 cells after 72 hrs by CellTiter Glo assay
# Type: functional, cell-based
# measurement_setup: K562, 72 h
Could you mark each record 1 (yes) if its IC50 falls strictly under 0.4 nM, and 0 (no) if it equals or exceeds it?

compound: COc1ccc(Cn2ccc3ccc(C(=O)NO)cc32)cc1
group: 0 (no)

// query Regarding CC(/C=C/C(=O)NO)=C\[C@@H](C)C(=O)c1ccc(N(C)C)cc1 [TRICHOSTATIN] , kindly confirm whether its IC50 is beneath 0.4 nM.
// result 0 (no)

// query Regarding COc1ccc(N(C)c2nc(C)nc3ccccc23)cc1/C=C/C(=O)NO , kindly confirm whether its IC50 is beneath 0.4 nM.
// result 1 (yes)

// query Regarding COc1ccc(N(C)c2cc(C#N)nc3ccccc23)cc1/C=C/C(=O)NO , kindly confirm whether its IC50 is beneath 0.4 nM.
// result 1 (yes)

// query Regarding C=C(c1ccc(OC)c(/C=C/C(=O)NO)c1)c1cc(OC)c(OC)c(OC)c1 , kindly confirm whether its IC50 is beneath 0.4 nM.
// result 0 (no)

###

# test: Metabolic stability in human liver microsomes assessed as half-life measured upto 6 hrs in presence of NADPH generating system by HPLC-MS/MS analysis
# Assay type: ADME, Microsome
Each entry below carries its recorded half-life.
Provide only the numeric value, understood in h.

Worked cases, half-life given:
chem_smiles: COc1ccc(N(C)c2nc(C)nc3ccccc23)cc1/C=C/C(=O)NO
measure: half-life
reading: 9
//
chem_smiles: C=C(c1ccc(OC)c(/C=C/C(=O)NO)c1)c1cc(OC)c(OC)c(OC)c1
measure: half-life
reading: 14
//
chem_smiles: COc1ccc(N(C)c2cc(C#N)nc3ccccc23)cc1/C=C/C(=O)NO
measure: half-life
reading: 32

Entry C=C(c1ccc(OC)c(O)c1)c1cc(OC)c(OC)c(OC)c1 , half-life reported as 12

###

# test: Antiproliferative activity against mouse MCA-205 cells after 72 hrs by CellTiter Glo assay
# Assay type: functional, cell-based
# measurement_setup: MCA-205, 72 h
measure: IC50 (nM)
Provide only the numeric value, understood in nM.

Entry COc1ccc(N(C)c2cc(C#N)nc3ccccc23)cc1/C=C/C(=O)NO , IC50 reported as 2.78

###

Each entry below carries its recorded IC50.
# System: MDA-MB-231
# test: Antiproliferative activity against human MDA-MB-231 cells after 72 hrs by CellTiter Glo assay
# Format: functional, cell-based
# measurement_setup: MDA-MB-231, 72 h

Worked cases, IC50 given:
chem_smiles: C=C(c1ccc(OC)c(/C=C/C(=O)NO)c1)c1cc(OC)c(OC)c(OC)c1
IC50: 4.6 nM

chem_smiles: CC(/C=C/C(=O)NO)=C\[C@@H](C)C(=O)c1ccc(N(C)C)cc1
IC50: 91 nM

chem_smiles: COc1ccc(N(C)c2cc(C#N)nc3ccccc23)cc1/C=C/C(=O)NO
IC50: 0.7 nM

Lab note: next compound to report on.
Value (IC50, MDA-MB-231) for record COc1ccc(N(C)c2nc(C)nc3ccccc23)cc1/C=C/C(=O)NO = 0.55 nM

###

# test: Metabolic stability in rat liver microsomes assessed as intrinsic clearance per mg protein measured upto 6 hrs in presence of NADPH generating system by HPLC-MS/MS analysis
# Format: ADME, Microsome
# measurement_setup: read-out: CLH
measure: microsomal CLint (µL/min/mg)
Provide only the numeric value, understood in µL/min/mg.

Worked cases, microsomal CLint given:
chem_smiles: C=C(c1ccc(OC)c(O)c1)c1cc(OC)c(OC)c(OC)c1
measure: microsomal CLint
measure_unit: µL/min/mg
reading: 2.73

chem_smiles: C=C(c1ccc(OC)c(/C=C/C(=O)NO)c1)c1cc(OC)c(OC)c(OC)c1
measure: microsomal CLint
measure_unit: µL/min/mg
reading: 2.57

chem_smiles: COc1ccc(N(C)c2cc(C#N)nc3ccccc23)cc1/C=C/C(=O)NO
measure: microsomal CLint
measure_unit: µL/min/mg
reading: 1.75

Lab note: next molecule to report on.
Entry COc1ccc(N(C)c2nc(C)nc3ccccc23)cc1/C=C/C(=O)NO , microsomal CLint reported as 3.27

###

# test: Solubility of compound in water
# Type: physicochemical
measure: solubility (µg/mL)
Provide only the numeric value, understood in µg/mL.

chem_smiles: COc1ccc(N(C)c2nc(C)nc3ccccc23)cc1/C=C/C(=O)NO
measure_unit: µg/mL
reading: 65

Lab note: next compound to report on.
Entry COc1ccc(N(C)c2cc(C#N)nc3ccccc23)cc1/C=C/C(=O)NO , solubility reported as 68.7

The reported numbers originate from ChEMBL document CHEMBL5113481.
